assay: Distribution coefficient, log D of the compound at pH 7.4 by LC-MS
Type: physicochemical
assay.conditions: octanol/water
measured.property: logD

Previously resolved entries follow.
Look up logD for this compound: CN1CCc2nc(C(=O)Nc3ccncc3CNC(=O)c3ccc(Cl)s3)sc2C1 3.3

Look up logD for this compound: CC(C)N1CCC(C(=O)Nc2ccccc2CNC(=O)c2ccc(Cl)s2)CC1 1.5

Look up logD for this compound: CN1CCc2nc(NC(=O)c3ccccc3CNC(=O)c3ccc(Cl)s3)sc2C1 2.9

Look up logD for this compound: CN1CCc2nc(C(=O)Nc3ccccc3CC(=O)Nc3ccc(Cl)cn3)sc2C1 2.8

Look up logD for this compound: CN1CCc2nc(C(=O)Nc3ccccc3CNC(=O)c3ccc(Cl)cc3)sc2C1 3.4

Look up logD for this compound: CN1CCc2nc(C(=O)Nc3ccccc3CNC(=O)c3cc(Cl)c[nH]3)sc2C1 3.2

Look up logD for this compound: CN1CCc2nc(C(=O)Nc3ccccc3CNC(=O)c3ccc(Cl)s3)sc2C1 3.3

Look up logD for this compound: CN1CCc2nc(C(=O)Nc3cnccc3CNC(=O)c3ccc(Cl)s3)sc2C1 2.6

A. O=C(NCc1ccccc1C(=O)Nc1ccc(N2CCOCC2=O)cc1)c1ccc(Cl)s1
B. CC(C)N1CCC(NC(=O)c2ccccc2CNC(=O)c2ccc(Cl)s2)CC1
C. CN1CCc2nc(C(=O)N[C@@H]3CCCC[C@@H]3CNC(=O)c3ccc(Cl)s3)sc2C1 (relative stereo)
With regard to logD, arrange the entries in ascending order, please. Give the labels in the order requested. B, A, C
(B: 1.4, A: 2.5, C: 3.7)

P. CN1CCc2nc(C(=O)Nc3ncccc3CNC(=O)c3ccc(Cl)s3)sc2C1
Q. CN1CCc2nc(C(=O)N[C@@H]3CCCC[C@H]3CNC(=O)c3ccc(Cl)s3)sc2C1 (relative stereo)
Of P and Q , whose reported logD is numerically smaller? Label of pick, please. P
(P: 2.2, Q: 3.5)
